experiment: Systemic clearance in rat by LC-MS-MS analysis; settings: human, in vivo
PARAMETER MEASURED: clearance (mL/min/kg)
Numbers only here, please. The scale is mL/min/kg.

Request: Return the recorded clearance value; entry: C[C@@H](c1ccccn1)c1c(CCN(C)C)sc2ccccc12
Response: 5.2

* * *

assay: in vitro; settings: rat, liver microsomes
PARAMETER MEASURED: CLint scaled at 1 h, 1 µM (mL/min/kg)
Numbers only here, please. The scale is mL/min/kg.

Request: Return the recorded CLint scaled at 1 h, 1 µM value; entry: C[C@@H](c1ccccn1)c1c(CCN(C)C)sc2ccccc12
Response: 2300

* * *

test: Half life in human; type: ADME, organism-based; conditions: in vivo
PARAMETER MEASURED: half-life (min)
Numbers only here, please. The scale is min.

Request: Return the recorded half-life value; entry: CC(C1=C(CCN(C)C)Cc2ccccc21)c1ccccn1 (racemic)
Response: 300

* * *

experiment: Elimination half life in human at 50 mg, po; format: ADME, organism-based; conditions: in vivo, read-out: beta t1/2 (converted)
PARAMETER MEASURED: half-life (h)
Numbers only here, please. The scale is h.

Request: Return the recorded half-life value; entry: CC(C1=C(CCN(C)C)Cc2ccccc21)c1ccccn1 (racemic)
Response: 18

* * *

For each entry below, report its Ki value.
target: Muscarinic acetylcholine receptor M1 (Homo sapiens); assay: Displacement of [3H]N-methylscopolamine from human muscarinic M1 receptor expressed in CHO Flp-In cells by liquid scintillation counting; type: cell-based
Sequence (P11229 whole entry): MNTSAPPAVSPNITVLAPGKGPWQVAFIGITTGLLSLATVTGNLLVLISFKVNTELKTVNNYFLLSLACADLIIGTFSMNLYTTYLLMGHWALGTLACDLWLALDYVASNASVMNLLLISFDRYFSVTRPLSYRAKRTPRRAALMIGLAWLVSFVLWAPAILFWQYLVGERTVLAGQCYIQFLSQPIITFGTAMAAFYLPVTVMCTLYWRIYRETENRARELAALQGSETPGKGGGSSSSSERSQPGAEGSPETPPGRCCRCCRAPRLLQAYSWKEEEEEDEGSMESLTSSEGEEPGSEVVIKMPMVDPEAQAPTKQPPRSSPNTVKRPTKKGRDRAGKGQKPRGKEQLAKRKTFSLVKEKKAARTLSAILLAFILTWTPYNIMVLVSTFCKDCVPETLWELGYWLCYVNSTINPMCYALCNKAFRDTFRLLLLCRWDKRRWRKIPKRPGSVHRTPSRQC
Numbers only here, please. The scale is µM.

Request: Return the recorded Ki value; entry: CN(C)CCc1sc2ccccc2c1Cc1ccc(F)cc1
Response: 2

Request: Return the recorded Ki value; entry: C[C@@H](c1ccccn1)c1c(CCN(C)C)oc2ccccc12
Response: 0.32

Request: Return the recorded Ki value; entry: C[C@H](C1=C(CCN(C)C)Cc2ccccc21)c1ccccn1
Response: 2.4

Request: Return the recorded Ki value; entry: C[C@@H](c1ccccn1)c1c(CCN(C)C)sc2ccccc12
Response: 5.3

* * *

assay: in vitro; conditions: human, liver microsomes
For each entry below, report its CLhep predicted at 1 h, 1 µM value.

Request: Return the recorded CLhep predicted at 1 h, 1 µM value; entry: C[C@@H](c1ccccn1)c1c(CCN(C)C)oc2ccccc12
Response: 10 mL/min/kg

Request: Return the recorded CLhep predicted at 1 h, 1 µM value; entry: C[C@@H](c1ccccn1)c1c(CCN(C)C)sc2ccccc12
Response: 10 mL/min/kg

Request: Return the recorded CLhep predicted at 1 h, 1 µM value; entry: CN(C)CCc1sc2ccccc2c1Cc1ccc(F)cc1
Response: 16 mL/min/kg

Request: Return the recorded CLhep predicted at 1 h, 1 µM value; entry: C[C@H](C1=C(CCN(C)C)Cc2ccccc21)c1ccccn1
Response: 7 mL/min/kg

Request: Return the recorded CLhep predicted at 1 h, 1 µM value; entry: CN(C)CCC1=C(Cc2ccc(F)cc2)c2ccccc2C1
Response: 13 mL/min/kg

* * *

assay: Plasma concentration in rat at 30 mg/kg, po after 1 hr
PARAMETER MEASURED: concentration at 1 h (ng/mL)
Numbers only here, please. The scale is ng/mL.

Request: Return the recorded concentration at 1 h value; entry: C[C@@H](c1ccccn1)c1c(CCN(C)C)sc2ccccc12
Response: 4

* * *

biological target: 5-hydroxytryptamine receptor 2A (Homo sapiens, UniProt P28223); assay: Displacement of [3H]ketanserin from human 5HT2A receptor expressed in HEK293 Flp-In cells by liquid scintillation counting
Sequence (P28223 whole entry): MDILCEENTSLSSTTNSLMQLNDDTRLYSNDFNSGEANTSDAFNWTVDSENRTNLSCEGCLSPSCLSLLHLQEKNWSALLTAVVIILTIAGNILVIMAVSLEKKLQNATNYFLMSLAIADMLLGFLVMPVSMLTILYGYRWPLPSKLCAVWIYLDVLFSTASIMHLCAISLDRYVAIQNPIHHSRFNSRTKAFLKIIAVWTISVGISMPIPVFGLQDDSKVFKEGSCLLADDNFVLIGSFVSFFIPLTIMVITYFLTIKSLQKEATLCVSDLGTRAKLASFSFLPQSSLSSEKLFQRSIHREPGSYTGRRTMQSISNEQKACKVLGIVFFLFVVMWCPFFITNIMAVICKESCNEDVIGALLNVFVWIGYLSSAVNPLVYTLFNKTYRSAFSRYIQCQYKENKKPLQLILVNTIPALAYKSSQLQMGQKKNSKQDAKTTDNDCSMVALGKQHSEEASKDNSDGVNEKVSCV
PARAMETER MEASURED: Ki
Field: value (include unit after the number)

Request: Return the recorded Ki value; entry: CN(C)CCC1=C(Cc2ccc(F)cc2)c2ccccc2C1
Response: 140 nM

Request: Return the recorded Ki value; entry: CN(C)CCc1sc2ccccc2c1Cc1ccc(F)cc1
Response: 90 nM

Request: Return the recorded Ki value; entry: CN(C)CCC1=C(Cc2cnccn2)c2ccccc2C1
Response: 600 nM

* * *

target: Muscarinic acetylcholine receptor M3 (Homo sapiens); assay: Displacement of [3H]N-methylscopolamine from human muscarinic M3 receptor expressed in CHO Flp-In cells by liquid scintillation counting
Sequence (P20309 whole entry): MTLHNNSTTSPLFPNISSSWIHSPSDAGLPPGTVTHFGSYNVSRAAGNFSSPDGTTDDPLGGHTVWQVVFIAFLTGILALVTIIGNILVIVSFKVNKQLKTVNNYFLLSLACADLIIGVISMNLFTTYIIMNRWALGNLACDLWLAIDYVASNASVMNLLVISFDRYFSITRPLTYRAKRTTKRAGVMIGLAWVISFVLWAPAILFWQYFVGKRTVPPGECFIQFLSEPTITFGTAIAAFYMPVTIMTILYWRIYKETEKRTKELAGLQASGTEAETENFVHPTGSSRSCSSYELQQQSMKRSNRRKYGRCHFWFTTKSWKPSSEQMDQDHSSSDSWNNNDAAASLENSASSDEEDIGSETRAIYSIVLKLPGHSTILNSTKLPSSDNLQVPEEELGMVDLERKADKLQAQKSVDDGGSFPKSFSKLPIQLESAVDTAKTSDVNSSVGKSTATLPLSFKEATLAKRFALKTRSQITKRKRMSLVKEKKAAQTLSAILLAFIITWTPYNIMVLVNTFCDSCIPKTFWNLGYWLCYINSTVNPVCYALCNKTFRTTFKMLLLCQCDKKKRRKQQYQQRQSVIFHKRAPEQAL
PARAMETER MEASURED: pKi
pKi here is simply -log10 of the concentration when that concentration is written in mol/L.

Request: Return the recorded pKi value; entry: C[C@@H](c1ccccn1)c1c(CCN(C)C)oc2ccccc12
Response: 7.12

* * *

target: Cytochrome P450 2D6 (Homo sapiens); assay: Inhibition of recombinant CYP2D6 in presence of NADPH generating system
Sequence (P10635 whole entry): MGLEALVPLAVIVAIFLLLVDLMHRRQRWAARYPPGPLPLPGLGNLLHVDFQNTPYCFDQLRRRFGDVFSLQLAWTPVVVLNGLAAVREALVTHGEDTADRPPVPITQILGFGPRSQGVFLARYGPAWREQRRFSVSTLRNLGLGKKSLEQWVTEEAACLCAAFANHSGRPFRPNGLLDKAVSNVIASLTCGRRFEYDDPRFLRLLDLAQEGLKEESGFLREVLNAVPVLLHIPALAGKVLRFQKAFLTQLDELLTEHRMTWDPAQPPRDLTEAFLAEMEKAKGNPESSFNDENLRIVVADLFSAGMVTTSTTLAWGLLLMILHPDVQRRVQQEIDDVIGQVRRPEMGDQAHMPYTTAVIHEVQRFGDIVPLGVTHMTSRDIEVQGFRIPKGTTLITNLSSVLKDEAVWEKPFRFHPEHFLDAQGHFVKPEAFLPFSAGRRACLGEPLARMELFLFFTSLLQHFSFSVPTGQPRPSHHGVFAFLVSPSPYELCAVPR
PARAMETER MEASURED: IC50
Field: value (include unit after the number)

Request: Param request: IC50 | system Cytochrome P450 2D6 (Homo sapiens) | item C[C@@H](c1ccccn1)c1c(CCN(C)C)sc2ccccc12
Response: 28.2 µM

Request: Param request: IC50 | system Cytochrome P450 2D6 (Homo sapiens) | item C[C@H](C1=C(CCN(C)C)Cc2ccccc21)c1ccccn1
Response: 32.5 µM

Request: Param request: IC50 | system Cytochrome P450 2D6 (Homo sapiens) | item CN(C)CCC1=C(Cc2ccc(F)cc2)c2ccccc2C1
Response: 0.3 µM

Request: Param request: IC50 | system Cytochrome P450 2D6 (Homo sapiens) | item CN(C)CCc1sc2ccccc2c1Cc1ccc(F)cc1
Response: 0.2 µM

* * *

For each entry below, report its pIC50 value.
molecular target: Voltage-gated inwardly rectifying potassium channel KCNH2 (Homo sapiens, UniProt Q12809); assay: Inhibition of human ERG expressed in HEK293 cells by patch-clamp technique
Sequence (Q12809 whole entry): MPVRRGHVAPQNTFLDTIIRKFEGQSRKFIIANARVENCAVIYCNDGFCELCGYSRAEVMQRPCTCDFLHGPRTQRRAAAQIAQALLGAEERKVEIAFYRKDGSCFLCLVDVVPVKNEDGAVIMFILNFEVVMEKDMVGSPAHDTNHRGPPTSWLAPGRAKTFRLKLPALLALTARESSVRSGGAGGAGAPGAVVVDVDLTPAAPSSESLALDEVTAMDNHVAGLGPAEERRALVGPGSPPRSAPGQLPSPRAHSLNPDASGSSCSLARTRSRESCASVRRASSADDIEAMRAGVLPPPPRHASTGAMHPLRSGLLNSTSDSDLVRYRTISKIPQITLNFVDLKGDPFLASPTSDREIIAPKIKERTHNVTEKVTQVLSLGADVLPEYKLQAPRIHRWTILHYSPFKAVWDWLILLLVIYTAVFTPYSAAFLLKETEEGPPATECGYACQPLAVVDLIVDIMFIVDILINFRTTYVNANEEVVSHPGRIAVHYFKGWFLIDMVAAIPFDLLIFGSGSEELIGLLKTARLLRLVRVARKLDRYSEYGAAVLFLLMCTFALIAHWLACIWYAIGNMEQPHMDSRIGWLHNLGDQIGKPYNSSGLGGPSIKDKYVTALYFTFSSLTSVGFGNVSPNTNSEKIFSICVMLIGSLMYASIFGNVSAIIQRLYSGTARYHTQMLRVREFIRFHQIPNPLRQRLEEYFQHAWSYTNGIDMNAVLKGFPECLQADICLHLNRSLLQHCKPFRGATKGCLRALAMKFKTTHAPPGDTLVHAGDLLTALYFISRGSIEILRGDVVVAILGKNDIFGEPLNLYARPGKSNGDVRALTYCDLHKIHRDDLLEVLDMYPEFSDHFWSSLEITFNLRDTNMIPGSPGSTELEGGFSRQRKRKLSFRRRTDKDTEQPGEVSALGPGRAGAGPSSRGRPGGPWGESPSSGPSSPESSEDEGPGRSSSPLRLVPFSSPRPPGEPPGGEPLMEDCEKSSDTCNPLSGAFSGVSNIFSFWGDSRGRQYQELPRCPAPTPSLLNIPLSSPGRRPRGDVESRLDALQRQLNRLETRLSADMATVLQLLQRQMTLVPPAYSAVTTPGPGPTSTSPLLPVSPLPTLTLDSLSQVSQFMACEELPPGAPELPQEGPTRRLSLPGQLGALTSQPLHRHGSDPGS
pIC50 here is simply -log10 of the concentration when that concentration is written in mol/L.

Request: Return the recorded pIC50 value; entry: C[C@@H](c1ccccn1)c1c(CCN(C)C)sc2ccccc12
Response: 5.85

Request: Return the recorded pIC50 value; entry: C[C@H](C1=C(CCN(C)C)Cc2ccccc21)c1ccccn1
Response: 6.05

* * *

biological target: Histamine H1 receptor (Homo sapiens); test: Displacement of [3H]pyrilamine from human histamine H1 receptor expressed in CHO Flp-In cells by liquid scintillation counting
Sequence (P35367 whole entry): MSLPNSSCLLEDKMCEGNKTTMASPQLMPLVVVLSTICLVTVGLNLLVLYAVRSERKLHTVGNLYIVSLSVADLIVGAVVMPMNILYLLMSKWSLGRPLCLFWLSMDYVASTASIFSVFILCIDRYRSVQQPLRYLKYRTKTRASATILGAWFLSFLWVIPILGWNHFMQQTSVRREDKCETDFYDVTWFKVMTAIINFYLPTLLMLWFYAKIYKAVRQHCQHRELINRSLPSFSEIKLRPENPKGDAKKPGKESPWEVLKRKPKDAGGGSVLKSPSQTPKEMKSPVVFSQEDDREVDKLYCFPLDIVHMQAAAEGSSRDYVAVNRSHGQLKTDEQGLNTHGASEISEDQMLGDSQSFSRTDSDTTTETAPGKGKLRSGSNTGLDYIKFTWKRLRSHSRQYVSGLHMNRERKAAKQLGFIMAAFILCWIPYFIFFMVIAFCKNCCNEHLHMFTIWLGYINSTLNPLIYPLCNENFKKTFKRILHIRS
pKi: −log10 of the molar value.
# binarize pKi: threshold 8 inclusive, high side Yes, low side No

Request: Kindly determine if pKi recorded for C[C@@H](c1ccccn1)c1c(CCN(C)C)sc2ccccc12 is above or exactly 8.
Response: Yes

Request: Kindly determine if pKi recorded for CN(C)CCC1=C(Cc2ccc(F)cc2)c2ccccc2C1 is above or exactly 8.
Response: Yes

Request: Kindly determine if pKi recorded for CN(C)CCc1sc2ccccc2c1Cc1cnccn1 is above or exactly 8.
Response: No

Request: Kindly determine if pKi recorded for C[C@H](C1=C(CCN(C)C)Cc2ccccc21)c1ccccn1 is above or exactly 8.
Response: Yes

Request: Kindly determine if pKi recorded for C[C@@H](c1ccccn1)c1c(CCN(C)C)oc2ccccc12 is above or exactly 8.
Response: Yes

* * *

For each entry below, report its Activity value.
biological target: 5-hydroxytryptamine receptor 2A (Homo sapiens); experiment: Displacement of [3H]ketanserin from human 5HT2A receptor expressed in HEK293 Flp-In cells at 10 uM by liquid scintillation counting; format: cell-based
Numbers only here, please. The scale is %.

Request: Param request: Activity | system 5-hydroxytryptamine receptor 2A (Homo sapiens) | item C[C@H](C1=C(CCN(C)C)Cc2ccccc21)c1cnccn1
Response: 32

Request: Param request: Activity | system 5-hydroxytryptamine receptor 2A (Homo sapiens) | item C[C@H](C1=C(CCN(C)C)Cc2ccccc21)c1ccccn1
Response: 33

Request: Param request: Activity | system 5-hydroxytryptamine receptor 2A (Homo sapiens) | item C[C@@H](c1ccccn1)c1c(CCN(C)C)sc2ccccc12
Response: 31

Request: Param request: Activity | system 5-hydroxytryptamine receptor 2A (Homo sapiens) | item C[C@@H](c1ccccn1)c1c(CCN(C)C)oc2ccccc12
Response: 62

* * *

assay: Drug level in rat brain at 30 mg/kg after 4 hrs by LC-MS-MS analysis; type: ADME, organism-based; design: dose 30 mg/kg; settings: read-out: Drug uptake
PARAMETER MEASURED: concentration at 4 h (ng/mL)
Numbers only here, please. The scale is ng/mL.

Request: Return the recorded concentration at 4 h value; entry: C[C@@H](c1ccccn1)c1c(CCN(C)C)sc2ccccc12
Response: 23

These data points were gathered from ChEMBL document CHEMBL1153519.
